assay: chemical genetic growth profiling, strain panel (AID 1159580);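 note: tested at 20 µM; growth read once vehicle control cultures reached saturation at 30 °C; 1 = growth at the plate median or of vehicle wells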; settings: S. cerevisiae deletion strains, growth OD, locus YBR009C, strain hhf1, hits give low values
Among all 5,500 compounds or so, about 2,000 (36%) were called active. Not shown: some 18% with an inconclusive outcome. The list shows a part of the results.
readout.name: normalized growth
Respond using a number only.

The examples below pair each entry with its known result.
CC(=O)Oc1ccc(O)cc1 :: 0.963
CC[N+](C)(C)c1cccc(O)c1 :: 0.964
CC(=O)Oc1ccc(C(c2ccc(OC(C)=O)cc2)c2ccccn2)cc1 :: 1.04

Field normalized growth (entry "CC(=O)Oc1ccc(/C=C/c2cc(OC(C)=O)cc(OC(C)=O)c2)cc1" ) reads 0.962

Field normalized growth (entry O=P1(NCCCl)OCCCN1CCCl (stereo unspecified) ) reads 1.01

Field normalized growth (entry "C=C1C[C@]23C[C@@]1(O)CC[C@H]2[C@@]12C=C[C@H](O)[C@@](C)(C(=O)O1)[C@H]2[C@@H]3C(=O)O" ) reads 1.02

----------
assay: chemical genetic growth profiling, strain panel (AID 1159580); settings: S. cerevisiae deletion strains, growth OD, locus YAL021C, strain ccr4, hits give low values
About 2,000 (36%) of roughly 5,500 compounds were called active. Another 18% or so got no clear call; they are omitted. The list shows a part of the results.
normalized growth less than 1 is Met; normalized growth greater than or equal to 1 is Not met.

Use the examples below as a reference point.
CCC(C)[C@H]1O[C@]2(C=C[C@@H]1C)C[C@@H]1C[C@@H](C/C=C(\C)[C@@H](OC3C[C@H](OC)C(O[C@H]4C[C@H](OC)[C@@H](O)[C@H](C)O4)[C@H](C)O3)[C@@H](C)/C=C/C=C3\CO[C@@H]4[C@H](O)C(C)=C[C@@H](C(=O)O1)[C@]34O)O2 (stereo partly specified) :: Met
CN(C)CCCN1c2ccccc2Sc2ccccc21 :: Met
CN(C)CCCN1c2ccccc2CCc2ccccc21 :: Met
CN(C)CCCN1c2ccccc2Sc2ccc(C(F)(F)F)cc21 :: Met
Cc1cn[nH]c1 :: Not met

Now for another entry.
Req: Please let me know if "Cc1nc(N)cc(C[n+]2csc(CCO)c2C)n1" shows normalized growth below 1.
Resp: Met

----------
assay: chemical genetic growth profiling, strain panel (AID 1159580); conditions: S. cerevisiae deletion strains, growth OD, locus YLR418C, strain cdc73, hits give low values
The whole screen tested about 5,500 compounds, of which about 2,000 (36%) were called active. About 18% were inconclusive and are not listed. This is one part of the list.
readout.name: normalized growth
Respond using a number only.

The examples below pair each entry with its known result.
CC[N+](C)(C)c1cccc(O)c1 :: 0.954
CC(C)=CCCC(C)[C@@H]1CC[C@]2(C)C3=C(CC[C@@]12C)C1(C)CC[C@H](O)C(C)(C)C1CC3 (stereo partly specified) :: 1.15
CC(C)CC1NC(=O)CNC1=O (stereo unspecified) :: 0.974

Field normalized growth (entry "Oc1cccc(O)c1" ) reads 0.961

Field normalized growth (entry C=C(C)C1(O)OC(=O)C=C1OC (stereo unspecified) ) reads 0.964

----------
test: chemical genetic growth profiling, strain panel (AID 1159580); conditions: S. cerevisiae deletion strains, growth OD, locus YDL192W, strain arf1, hits give low values
Screen size: about 5,500 compounds; about 2,000 (36%) were called active. About 18% were inconclusive and are not listed. Some of the results follow.
readout.name: normalized growth

The examples below pair each entry with its known result.
CC12CCC3C(CC3(C)C)C(C)(CCC1=O)O2 (stereo unspecified) :: 1.01 (inactive)
CN(C)C(=O)Oc1cccc([N+](C)(C)C)c1 :: 0.98 (inactive)
CCCc1cc(=O)[nH]c(=S)[nH]1 :: 1 (inactive)
COC(=O)c1c(C)c2c(c(C)c1OC)OC(=O)c1c(C)c(Cl)c(OC)c(Cl)c1O2 :: 1.02 (inactive)
CNNC :: 0.995 (inactive)
CC(C)CC(NC(=O)OCC1c2ccccc2-c2ccccc21)C(=O)O (stereo unspecified) :: 1.01 (inactive)

Now for a further molecule.
Field normalized growth (entry "COC(=O)c1c(OC)cc2c(c1C)Oc1c(Cl)c(O)c(Cl)c(C)c1C(=O)O2" ) reads 0.949 (inactive)

----------
test: chemical genetic growth profiling, strain panel (AID 1159580); details: S. cerevisiae deletion strains, growth OD, locus YBR023C, strain chs3, hits give low values
The campaign covered roughly 5,500 compounds. About 2,000 (36%) were called active. Another 18% or so got no clear call; they are omitted. This is one part of the list.
normalized growth less than 1 is 1; normalized growth greater than or equal to 1 is -1.

Use the examples below as a reference point.
Oc1c(Cl)cc(Cl)cc1Sc1cc(Cl)cc(Cl)c1O :: 1
CC(C)=CC1C(C(=O)O)C1(C)C (centres undefined) :: 1
Cc1cn[nH]c1 :: -1
COC(=O)c1c(C)c2c(c(C)c1O)OC(=O)c1c(C)c(Cl)c(O)c(Cl)c1O2 :: 1

Now for another entry.
Req: Please let me know if "Nc1ccc(C(=O)O)cc1" shows normalized growth below 1.
Resp: -1

----------
experiment: chemical genetic growth profiling, strain panel (AID 1159580); details: S. cerevisiae deletion strains, growth OD, locus YLL001W, strain dnm1
The whole screen tested about 5,500 compounds, of which about 2,000 (36%) were called active. Another 18% or so got no clear call; they are omitted. Rule as the data show it: active = normalized growth mostly below about 0.91 (no sharp cut-off); inconclusive = no clear call, values can overlap the other calls; inactive = mostly above about 0.92. The list shows a part of the results.
Permitted responses: T for active, F for inactive

Use the examples below as a reference point.
O=C(OCc1ccccc1)c1ccccc1 :: F
C=C1c2c(Cl)ccc(O)c2C(O)=C2C(=O)[C@]3(O)C(O)=C(C(N)=O)C(=O)[C@@H](N(C)C)[C@@H]3[C@@H](O)[C@H]12 :: F
NC(=O)c1cccnc1 :: F
CC(=O)c1cc(CC=C(C)C)c(O)c(CC=C(C)C)c1 :: F
O=C(O)c1ccccc1 :: F

Req: Per the records of this test, what outcome belongs to "CCCN(CCC)S(=O)(=O)c1ccc(C(=O)O)cc1" ?
Resp: F

Req: Per the records of this test, what outcome belongs to "O=C(OOC(=O)c1ccccc1)c1ccccc1" ?
Resp: F

Req: Per the records of this test, what outcome belongs to "CN(C)CCCN1c2ccccc2Sc2ccccc21" ?
Resp: F

Req: Per the records of this test, what outcome belongs to COc1ccc(C2Sc3ccccc3N(CCN(C)C)C(=O)C2OC(C)=O)cc1 (centres undefined) ?
Resp: F

Req: Per the records of this test, what outcome belongs to "CN(C)[C@@H]1C(=O)C(C(N)=O)=C(O)[C@@]2(O)C(=O)C3=C(O)c4c(O)ccc(Cl)c4[C@@H](O)[C@H]3C[C@@H]12" ?
Resp: F

----------
assay: chemical genetic growth profiling, strain panel (AID 1159580);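 note: tested at 20 µM; growth read once vehicle control cultures reached saturation at 30 °C; 1 = growth at the plate median or of vehicle wells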; details: S. cerevisiae deletion strains, growth OD, locus YPL209C, strain IPL1, hits give low values
About 2,000 (36%) of roughly 5,500 compounds were called active. About 18% were inconclusive and are not listed. The list shows a part of the results.
readout.name: normalized growth
Respond using a number only.

The examples below pair each entry with its known result.
CSc1sc(C(=O)Sc2ccccc2)cc1S(=O)(=O)C(C)C :: 0.994
Cc1onc(-c2c(Cl)cccc2Cl)c1C(=O)O/N=C(/N)Cc1ccc(C(C)(C)C)cc1 :: 1
Cc1nn(-c2cccc(Cl)c2)c2oc(=O)cc(C(F)(F)F)c12 :: 0.972

Now for a further molecule.
Field normalized growth (entry "O=S(=O)(Nc1ccccc1Oc1ccccc1)c1ccc(-c2ccno2)s1" ) reads 0.965

----------
test: chemical genetic growth profiling, strain panel (AID 1159580);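 note: tested at 20 µM; growth read once vehicle control cultures reached saturation at 30 °C; 1 = growth at the plate median or of vehicle wells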; conditions: S. cerevisiae deletion strains, growth OD, locus YNL233W, strain BNI4, hits give low values
About 2,000 (36%) of roughly 5,500 compounds were called active. Not shown: some 18% with an inconclusive outcome. The list shows a part of the results.
readout.name: normalized growth
Respond using a number only.

The examples below pair each entry with its known result.
CC(C)CCCC(C)C1CC[C@@]2(C)C3=C(CC[C@]12C)[C@@]1(C)CC[C@H](O)C(C)(C)C1CC3 (stereo partly specified) :: 1.01
NC(=O)NC(=O)Cc1ccccc1 :: 1.01
NCC(=O)c1ccccc1 :: 1.02
CCN1CCN(C(=O)NC(C(=O)N[C@@H]2C(=O)N3[C@@H]2SC(C)(C)[C@@H]3C(=O)O)c2ccccc2)C(=O)C1=O (stereo partly specified) :: 0.995
CCN(CC)CCOC(=O)C1(C2CCCCC2)CCCCC1 :: 0.962

Now for a further compound.
Field normalized growth (entry "O=C(OCc1ccccc1)c1ccccc1" ) reads 0.931

----------
test: chemical genetic growth profiling, strain panel (AID 1159580);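 note: tested at 20 µM; growth read once vehicle control cultures reached saturation at 30 °C; 1 = growth at the plate median or of vehicle wells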; details: S. cerevisiae deletion strains, growth OD, locus YMR129W
The campaign covered roughly 5,500 compounds. About 2,000 (36%) were called active. About 18% were inconclusive and are not listed. No stated cut-off is given here; in the data, active means normalized growth mostly below about 0.91 (no sharp cut-off); inconclusive means no clear call, values can overlap the other calls; inactive means mostly above about 0.92. The list shows a part of the results.
Permitted responses: active, inactive

NS(=O)(=O)c1cc2c(cc1Cl)NC(CSCc1ccccc1)=NS2(=O)=O :: inactive

Req: Per the records of this test, what outcome belongs to "CC(=O)Oc1ccc(C(c2ccc(OC(C)=O)cc2)c2ccccn2)cc1" ?
Resp: inactive

Req: Per the records of this test, what outcome belongs to "Cc1cc(=O)oc2cc(O)cc(O)c12" ?
Resp: inactive

Req: Per the records of this test, what outcome belongs to CC12CCC3C(CC3(C)C)C(C)(CCC1=O)O2 (configuration not stated) ?
Resp: inactive

Req: Per the records of this test, what outcome belongs to "CC(=O)Oc1cccc(O)c1" ?
Resp: inactive

Req: Per the records of this test, what outcome belongs to NCC(N)C(=O)c1ccccc1 (configuration not stated) ?
Resp: inactive

Req: Per the records of this test, what outcome belongs to "COC(=O)/C(=C1\OC(=O)C(c2ccccc2)=C1O)c1ccccc1" ?
Resp: inactive
